ASSAY METHOD TEXT: Stability in human hepatocytes assessed as intrinsic clearance at 1 uM incubated upto 180 mins by LC-MS/MS analysis
Format: ADME, cell-based, Hepatocyte
PARTICULARS: read-out: CLH
METRIC: CLint scaled at 1 µM (mL/min/kg)
Give bare numbers, in mL/min/kg.

Problem: Identify measured CLint scaled at 1 µM corresponding to C[C@@H](Oc1ccc2[nH]nc(-c3ccc(N4CC5(C4)CN(S(C)(=O)=O)C5)nc3)c2c1)c1c(Cl)cncc1Cl
Solution: 14

---

Exercise: for every item that follows, state its recorded IC50.
ASSAY METHOD TEXT: Inhibition of recombinant BCR/FGFR2 (unknown origin) transduced in mouse BaF3 cells incubated for 48 hrs by Cell Titer Glo assay
Assay type: cell-based
PARTICULARS: BaF3, 48 h
Your answer should be a number followed by the unit of measure.

Below: 5 compounds and their reported IC50.
C[C@@H](Oc1ccc2[nH]nc(-c3ccc(N4CC5(C4)CN(S(C)(=O)=O)C5)nc3)c2c1)c1c(Cl)cnnc1Cl : 67 nM
C[C@@H](Oc1ccc2[nH]nc(-c3ccc(N4CC5(CCCN(S(C)(=O)=O)C5)C4)nc3)c2c1)c1c(Cl)cncc1Cl : 62 nM
C[C@@H](Oc1ccc2[nH]nc(-c3ccc(N4CCN(S(C)(=O)=O)CC4=O)nc3)c2c1)c1c(Cl)cncc1Cl : 407 nM
C[C@@H](Oc1cc2c(-c3ccc(N4CC5(C4)CN(S(C)(=O)=O)C5)nc3)n[nH]c2cc1Cl)c1c(Cl)cncc1Cl : 35 nM
C[C@@H](Oc1ccc2[nH]nc(-c3ccc(N4CCOCC4)nc3)c2c1)c1c(Cl)cncc1Cl : 313 nM

Could you report IC50 for every entry in the following list?
1. CC(C)N1CC2(CN(c3ccc(-c4n[nH]c5ccc(O[C@H](C)c6c(Cl)cncc6Cl)cc45)cn3)C2)C1
2. C[C@@H](Oc1ccc2[nH]nc(-c3ccc(Cl)nc3)c2c1)c1c(Cl)cncc1Cl

Solution:
1. 35 nM
2. 451 nM

Problem: Let me know recorded IC50 for COc1cc2[nH]nc(-c3ccc(N4CC5(C4)CN(S(C)(=O)=O)C5)nc3)c2cc1O[C@H](C)c1c(Cl)cncc1Cl , thanks.
Solution: 6.9 nM

src = ChEMBL document CHEMBL5579895
